B1: PBXIP1 (parent)
chain: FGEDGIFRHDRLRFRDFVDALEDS

variants of: B1; assay: protein stability index of a GFP-peptide fusion (GPS, HEK-293T) (PSI 1-6); higher = more stable; conditions: c terminus: a fixed tail appended;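 also: lentivirally expressed fusions sorted by FACS into six bins by GFP to DsRed ratio, PSI derived from sequencing read proportions per bin multiplied by bin number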
Attribute: protein stability index

| biopolymer-sequence | protein stability index |
| --- | --- |
| FGEDGIFRHDRLRFRDFVDILEDS [A20I] | 2.28 |
| FGEDGQFRHDRLRFRDFVDALEDS [I6Q] | 3.86 |
| FGEDGIFRHDTLRFRDFVDALEDS [R11T] | 3.02 |
| FGEDGYFRHDRLRFRDFVDALEDS [I6Y] | 2.24 |
| FGEDGIFRHDRLRFRDMVDALEDS [F17M] | 3.38 |
